# assay_system: GST-tag DNA polymerase β, full-length (1–335 amino acids) (UniProt P06746)
# method: SPR; Biacore X-100, 25 °C; GST-tag polβ or APE1 immobilised on CM5 chip (EDC/NHS, 10 mM sodium acetate pH 4.0), his-tag LIG1 or LIGIIIα proteins as analytes; 10 mM Hepes pH 7.4, 150 mM NaCl, 3 mM EDTA, 0.005% P20; 1:1 (Langmuir) model; polβ truncated mutants (Fig. S2) tested likewise, orientation not given
observable: Kd (nM)

I. LIGIIIα▵ZnF (170–922 amino acids) (domain or fragment)
II. LIGIIIα▵BRCT (1–755 amino acids) (domain or fragment)
# input Please state the entry with greater Kd among I and II . Answer = label.
# output II
(II: 520 nM, I: 30 nM)

* * *

# assay_system: GST-tag polβ full-length (DNA polymerase β, 1–335 amino acids) (UniProt P06746)
# method: SPR; GST-tag polβ or APE1 immobilised on CM5 chip (EDC/NHS), his-tag LIG1 or LIGIIIα passed as analyte; Biacore X-100, 25 °C; 10 mM Hepes pH 7.4, 150 mM NaCl, 3 mM EDTA, 0.005% surfactant P20; 1:1 (Langmuir) fit
observable: Kd (µM)
Numbers only here, please. The scale is µM.

# input What value of measured Kd is listed for LIGIIIα△ZnF (170–922 amino acids), LIGIIIα lacking the zinc-finger domain (domain or fragment) ?
# output 0.027

* * *

# assay_system: Polβ C-terminal (92–335 amino acids), as used in SPR (UniProt P06746)
# method: SPR; Supplementary Figures 2 and 3; partner immobilised on the CM5 chip not given; Biacore X-100, 25 °C; 10 mM Hepes pH 7.4, 150 mM NaCl, 3 mM EDTA, 0.005% surfactant P20; 1:1 (Langmuir) fit
observable: pKd
Note on pKd: it is the negative log10 of concentration, concentration in mol/L.

# input Data request, read-out pKd, for His-tag LIGIIIα full-length (DNA ligase IIIα, 1–922 amino acids) (enzyme)
# output 6.30
